# Tested on: SF-295 CNS
# test: NCI-60 one-dose screen, 48 h (100 = growth as untreated, 0 = no growth, -100 = all killed)
# details: 10 µM unless noted
About 83,000 compounds went through this panel and 20% of them were active in at least one assay; those are over-represented in the sample as a whole.
measured_metric: growth (%)

[[record]]
compound = "CCOC(=O)/C(O)=C(\\C=N\\C(=S)Nc1ccc(Cl)c(Cl)c1)C(=O)OCC"
obs_value = 105

[[record]]
compound = "Clc1ccc(/C=C/c2ccccn2)cc1"
obs_value = 100

[[record]]
compound = "CCCC1OC(c2ccco2)OCC1CC (stereo unspecified)"
obs_value = 105

[[record]]
compound = "COc1ccc(C(=O)/C(=N/Nc2ccccc2)c2ccc(OC)cc2)cc1"
obs_value = 101

[[record]]
compound = "Cc1cccc(C)c1NC(=S)/N=C\\c1c(O)[nH]c(=O)[nH]c1=O"
obs_value = 97.9

[[record]]
compound = "Cc1cc(Cc2ccccc2)c(O)c(Cc2ccccc2)c1"
obs_value = 101


---

Quick reference: growth of the listed items.
# Test system: HCC-2998 colon
# test: NCI-60 one-dose screen, 48 h (100 = growth as untreated, 0 = no growth, -100 = all killed)
# details: 10 µM unless noted
This is part of a sample that, as a whole, favours compounds with a hit. Of some 83,000 tested, about 20% had one in any assay. The source made the active and inactive calls. How the source made its calls: active means growth percent below 10; inactive means the rest.
measured_metric: growth

[[record]]
molecule = "C#CCSc1nnnn1-c1ccccc1"
obs_value = "104% (inactive)"

[[record]]
molecule = "CCC12OC(COc3ccccc3)CN1CCN2c1ccccc1 (configuration not stated)"
obs_value = "115% [100 µM] (inactive)"

[[record]]
molecule = "Oc1ccc(CCC2CCNc3ccccc32)cc1 (configuration not stated)"
obs_value = "102% (inactive)"

[[record]]
molecule = "COc1ccc(C)cc1NC(=O)SC(C)C"
obs_value = "98.5% [100 µM] (inactive)"

[[record]]
molecule = "COC(c1ccc2c(c1)OCO2)C(C)Br (configuration not stated)"
obs_value = "105% (inactive)"

[[record]]
molecule = "C=COC(=O)CCOCC(CC)CCCC (configuration not stated)"
obs_value = "105% (inactive)"

[[record]]
molecule = "COc1cccc2c1Cc1ccccc1-2"
obs_value = "98.5% (inactive)"


---

# Tested on: HT29 colon
# test: NCI-60 one-dose screen, 48 h
# details: 10 µM unless noted
Compounds without any hit were thinned out: in the full panel of roughly 83,000, 20% have a hit. Calls of active or inactive are those of the source. The calls were made as follows: active = growth percent below 10; inactive = the rest.
Possible outcomes: 1 (yes) = active, 0 (no) = inactive

[[record]]
compound = "Nc1ncnc(Nc2ccccc2)n1"
class_assignment = "0 (no)"

[[record]]
compound = "CCC(/C=C\\C(C)=O)CC"
class_assignment = "0 (no)"

[[record]]
compound = "Cc1ccc(S(=O)(=O)CCCl)cc1"
class_assignment = "0 (no)"

[[record]]
compound = "S=c1nc(-c2ccccn2)c(-c2ccccn2)n[nH]1"
class_assignment = "0 (no)"

[[record]]
compound = "C=CCc1cc(OC)c(OC)c(OC)c1"
class_assignment = "0 (no)"

[[record]]
compound = "CC(C)OCC(CCl)OC(=O)Nc1ccccc1 (stereo not given)"
class_assignment = "0 (no)"

[[record]]
compound = "O=C(O)Cc1ccc(Cl)cc1"
class_assignment = "0 (no)"

[[record]]
compound = "CCCCCC(=O)OCCC1CCCCC1"
class_assignment = "0 (no)"

[[record]]
compound = "CCNC(=O)OCCc1c2ccccc2nc2ccccc12"
class_assignment = "0 (no)"

[[record]]
compound = "CC(=O)N=c1ccc2nc3c(cc(N)c4ccccc43)oc-2c1"
class_assignment = "1 (yes)"

[[record]]
compound = "O=C(Nc1cccc(Cl)c1)c1ccc(Cl)cc1Cl"
class_assignment = "0 (no)"

[[record]]
compound = "CC(C)C(=O)OCCOc1ccc(C(C)(C)C)cc1"
class_assignment = "0 (no)"

[[record]]
compound = "Oc1cccnc1CN1CCCC1"
class_assignment = "0 (no)"

[[record]]
compound = "ClCC(Cl)C1CCC(Cl)C(Cl)C1 (stereo not given)"
class_assignment = "0 (no)"

[[record]]
compound = "C=C1SC(=Nc2c(C)cccc2C)N(c2nc(Cl)nc(Cl)n2)C12CCCCC2"
class_assignment = "0 (no)"

[[record]]
compound = "CC(C)N(C(=O)c1ccccc1)C(C)C"
class_assignment = "0 (no)"

[[record]]
compound = "CC(=O)NC(CCC(=O)c1ccccc1)C(=O)O (stereo not given)"
class_assignment = "0 (no)"

[[record]]
compound = "O=S(=O)(O)c1cccnc1"
class_assignment = "0 (no)"

[[record]]
compound = "N#C/C(=C\\c1ccc2c(c1)OCO2)c1ccccc1"
class_assignment = "0 (no)"

[[record]]
compound = "S=c1nc2[nH]c3ccccc3c2n[nH]1"
class_assignment = "0 (no)"

[[record]]
compound = "CCOC(=O)C(COS(C)(=O)=O)(COS(C)(=O)=O)C(=O)OCC"
class_assignment = "0 (no)"

[[record]]
compound = "O=[n+]1ccn([O-])c2ccccc21"
class_assignment = "0 (no)"

[[record]]
compound = "O=[N+]([O-])c1c(Cl)ncnc1Cl"
class_assignment = "0 (no)"

[[record]]
compound = "C[n+]1c(/C=C\\C=C\\N2CCCCC2)sc2ccccc21"
class_assignment = "1 (yes)"

[[record]]
compound = "Cc1cccc2ccccc12"
class_assignment = "0 (no)"

[[record]]
compound = "O=C(c1ccccc1)c1ccc(-c2ccc(O)cc2)cc1"
class_assignment = "0 (no)"

[[record]]
compound = "O=[N+]([O-])c1ccc(-c2nc(N(CCO)CCO)c3ccccc3n2)o1"
class_assignment = "1 (yes)"

[[record]]
compound = "CC(=O)N(C(C)=O)c1ccc(C)cc1"
class_assignment = "0 (no)"

[[record]]
compound = "Cn1c2ccccc2c2nnc(NCCCCO)nc21"
class_assignment = "0 (no)"

[[record]]
compound = "Nc1ccc2c(c1)Cc1cc(N)c(N)cc1-2"
class_assignment = "0 (no)"

[[record]]
compound = "COC(=O)c1ccccc1C(=O)c1c(C)cc(C)cc1C"
class_assignment = "0 (no)"

[[record]]
compound = "C=COC(=O)C(C)(C)C"
class_assignment = "0 (no)"

[[record]]
compound = "Nc1c(Br)cc(O)c2c1C(=O)c1ccccc1C2=O"
class_assignment = "0 (no)"

[[record]]
compound = "N#CCCN1C(=O)CCC1C(=O)O (stereo not given)"
class_assignment = "0 (no)"

[[record]]
compound = "NC(=S)N/N=C/c1ccc(OC(=O)COc2ccccc2)cn1"
class_assignment = "0 (no)"

[[record]]
compound = "CCC1CCC(C)NC1 (stereo not given)"
class_assignment = "0 (no)"

[[record]]
compound = "CC(=O)c1ccc(C)cc1"
class_assignment = "0 (no)"

[[record]]
compound = "CC(C)Sc1ncnc2nc[nH]c12"
class_assignment = "0 (no)"

[[record]]
compound = "c1ccc(Nc2ccccn2)nc1"
class_assignment = "0 (no)"

[[record]]
compound = "COC1OC(CO)C(OC)C(O)C1O (stereo not given)"
class_assignment = "0 (no)"

[[record]]
compound = "O=C(O)CCCCCNC(=O)OCc1ccccc1"
class_assignment = "0 (no)"

[[record]]
compound = "S=CN1CCCCC1"
class_assignment = "0 (no)"

[[record]]
compound = "CCCCc1ccc2nc(NC(=O)OC)[nH]c2c1"
class_assignment = "0 (no)"

[[record]]
compound = "CCOS(=O)(=O)c1ccc([N+](=O)[O-])cc1"
class_assignment = "0 (no)"

[[record]]
compound = "N#C/C(=C\\NC(=S)N=Nc1c(O)[nH]c2ccccc12)c1nc2ccccc2s1"
class_assignment = "0 (no)"

[[record]]
compound = "Cc1onc(-c2ccccc2Cl)c1C(=O)Cl"
class_assignment = "0 (no)"

[[record]]
compound = "c1ccc2[nH]c(Cc3nc4ccccc4[nH]3)nc2c1"
class_assignment = "0 (no)"

[[record]]
compound = "O=[N+]([O-])c1ccc2[nH]c(=S)n(/C=C(/c3ccc(Cl)cc3Cl)S(=O)(=O)Cc3ccc(Cl)cc3Cl)c2c1"
class_assignment = "0 (no)"

[[record]]
compound = "CC1CC(C)S(=O)(=O)C1 (stereo not given)"
class_assignment = "0 (no)"

[[record]]
compound = "CC1(c2ccccc2)CO1 (stereo not given)"
class_assignment = "0 (no)"

[[record]]
compound = "COC1CC(OC(=O)c2ccc([N+](=O)[O-])cc2)C(COC(=O)c2ccc([N+](=O)[O-])cc2)O1 (stereo not given)"
class_assignment = "0 (no)"

[[record]]
compound = "Cc1[nH]nc(C(N)=O)c1[N+](=O)[O-]"
class_assignment = "0 (no)"

[[record]]
compound = "O=S(=O)(O)c1ccc(O)c(C2CCCCC2)c1"
class_assignment = "0 (no)"

[[record]]
compound = "CC(C)C1CCC(C)C(O)C1 (stereo not given)"
class_assignment = "0 (no)"

[[record]]
compound = "Cc1ccc(N2C(=O)c3cccc4c(N)c(S(=O)(=O)O)cc(c34)C2=O)cc1"
class_assignment = "0 (no)"

